Item-by-item account of relative viability
Tested on: NCI-H322M
Method notes: relative viability (nuclei count vs DMSO), 5 days (fraction); higher = more cells survive
Setup conditions: first compound 1.265 µM
Note: the reply should be a number with no unit written.

Here is how some compounds turned out for relative viability.
relative viability lookup needed for Cc1sc2c(c1C)C(c1ccc(Cl)cc1)=N[C@@H](CC(=O)OC(C)(C)C)c1nnc(C)n1-2 [JQ1] + N=C(N)NC(=N)NCCc1ccccc1 [Phenformin] (partner 250 µM) , thanks.
0.373

relative viability lookup needed for Cc1sc2c(c1C)C(c1ccc(Cl)cc1)=N[C@@H](CC(=O)OC(C)(C)C)c1nnc(C)n1-2 [JQ1] + C[C@]1(O)C[C@@H](c2nc(-c3ccc4ccc(-c5ccccc5)nc4c3)c3c(N)nccn32)C1 [Linsitinib] (partner 1 µM) , thanks.
0.474

relative viability lookup needed for Cc1sc2c(c1C)C(c1ccc(Cl)cc1)=N[C@@H](CC(=O)OC(C)(C)C)c1nnc(C)n1-2 [JQ1] + C[C@@H](Oc1cc(-c2cnn(C3CCNCC3)c2)cnc1N)c1c(Cl)ccc(F)c1Cl [Crizotinib] (partner 1 µM) , thanks.
0.533

---
relative viability lookup needed for Cc1sc2c(c1C)C(c1ccc(Cl)cc1)=N[C@@H](CC(=O)OC(C)(C)C)c1nnc(C)n1-2 [JQ1] + COc1cccc2cc(-c3nc([C@H]4CC[C@H](C(=O)O)CC4)n4ncnc(N)c34)[nH]c12 [OSI-027] (partner 0.5 µM) , thanks.
0.321

----------
Tested on: ChaGo-K-1
Method notes: relative viability (nuclei count vs DMSO), 5 days (fraction); higher = more cells survive
Setup conditions: first compound 50 µM
Item-by-item account of relative viability
Note: the reply should be a number with no unit written.

relative viability lookup needed for O=C(O)CCCCC(CCSCc1ccccc1)SCc1ccccc1 (centres undefined) [CPI-613] + NC(=O)Nc1cc(-c2cccc(F)c2)sc1C(=O)N[C@H]1CCCNC1 [AZD7762] (partner 0.2 µM) , thanks.
0.85

---
relative viability lookup needed for O=C(O)CCCCC(CCSCc1ccccc1)SCc1ccccc1 (centres undefined) [CPI-613] + N=C(N)NC(=N)NCCc1ccccc1 [Phenformin] (partner 250 µM) , thanks.
0.491

relative viability lookup needed for O=C(O)CCCCC(CCSCc1ccccc1)SCc1ccccc1 (centres undefined) [CPI-613] + CC1(C)CCC(c2ccc(Cl)cc2)=C(CN2CCN(c3ccc(C(=O)NS(=O)(=O)c4ccc(N[C@H](CCN5CCOCC5)CSc5ccccc5)c(S(=O)(=O)C(F)(F)F)c4)cc3)CC2)C1 [Navitoclax] (partner 0.5 µM) , thanks.
0.935

relative viability lookup needed for O=C(O)CCCCC(CCSCc1ccccc1)SCc1ccccc1 (centres undefined) [CPI-613] + CS(=O)(=O)N1CCN(Cc2cc3nc(-c4cccc5[nH]ncc45)nc(N4CCOCC4)c3s2)CC1 [Pictilisib] (partner 1 µM) , thanks.
0.707

----------
Test system: RERF-LC-KJ
Method notes: relative viability (nuclei count vs DMSO), 5 days (fraction); higher = more cells survive
Setup conditions: first compound 0.08 µM
Readout label: relative viability
Note: the reply should be a number with no unit written.

Here is how some compounds turned out for relative viability.
relative viability lookup needed for O=c1[nH]c2ccccc2n1C1CCN(CCCC(c2ccc(F)cc2)c2ccc(F)cc2)CC1 [Pimozide] + Cc1cc(Nc2cc(N3CCN(C)CC3)nc(Sc3ccc(NC(=O)C4CC4)cc3)n2)n[nH]1 [Tozasertib] (partner 0.1 µM) , thanks.
0.468

relative viability lookup needed for O=c1[nH]c2ccccc2n1C1CCN(CCCC(c2ccc(F)cc2)c2ccc(F)cc2)CC1 [Pimozide] + Cc1nc(NC(=O)N2CCC[C@H]2C(N)=O)sc1-c1ccnc(C(C)(C)C(F)(F)F)c1 [Alpelisib] (partner 2 µM) , thanks.
0.693

---
relative viability lookup needed for Cc1cnc(-c2cnc(NCCNc3ccc(C#N)cn3)nc2-c2ccc(Cl)cc2Cl)[nH]1 + COc1cccc2cc(-c3nc([C@H]4CC[C@H](C(=O)O)CC4)n4ncnc(N)c34)[nH]c12 [OSI-027] (partner 0.5 µM) , thanks.
0.672

relative viability lookup needed for Cc1cnc(-c2cnc(NCCNc3ccc(C#N)cn3)nc2-c2ccc(Cl)cc2Cl)[nH]1 + C[C@]1(O)C[C@@H](c2nc(-c3ccc4ccc(-c5ccccc5)nc4c3)c3c(N)nccn32)C1 [Linsitinib] (partner 1 µM) , thanks.
0.948
